- Tested on: OVCAR-3 ovarian
Lab note: assign the record to one of active, inactive

Example entries and their recorded answers appear below.
compound | label
NNc1cccc(/C=C/c2ccccc2)cc1=O | inactive
O=C(NCCCNc1cc(-c2cn(-c3ccccc3)nc2-c2cccc(O)c2)ccn1)c1ccccc1 | inactive
O=C(Nc1ccc(F)cc1)c1c(NC(=O)C(F)(F)F)sc2c1CCCCC2 | inactive
O=S(=O)(NCC1CCC(CNc2ccc(Cl)cc2)CC1)c1ccc(-c2ccccc2)cc1 (centres undefined) | inactive
CC(=O)O[C@H]1CC[C@@]2(C)C(=CC[C@H]3[C@@H]4C/C(=C\c5cccc(OCCN6CCOCC6)c5)[C@H](OC(C)=O)[C@@]4(C)CC[C@@H]32)C1 | inactive
N#Cc1cnc2cc(OC[C@@H](O)CO)c(NC(=O)CC3CSSC3)cc2c1Nc1ccc(OCc2cccc(F)c2)c(Cl)c1 | active
Nc1nnc2cc(Cl)ccc2n1 | inactive
CCOC(=O)c1[nH]c(-c2ccc(Cl)cc2)cc1-c1cccnc1 | active

Consider now this further compound.
Please share the test call associated with COc1cc(/C=C2\CC3C4CC=C5C[C@@H](OC(C)=O)CC[C@]5(C)C4CC[C@]3(C)C2=O)ccc1OCCCn1ccnc1 (some centres undefined) . inactive
